# Tested on: HOP-92 NSCLC
# assay.details: NCI-60 one-dose screen, 48 h
# condition.parameters: 10 µM
This is part of a sample that, as a whole, favours compounds with a hit. Of some 83,000 tested, about 20% had one in any assay. The source made the active and inactive calls. The calls were made as follows: active = growth percent below 10; inactive = the rest.
Outcome codes: True (active), False (inactive)

compound: CNC(=O)c1cc(Oc2ccc(NC(=O)Nc3ccc(Cl)c(OC4CCCCC4)c3)c(F)c2)ccn1
classification: False
//
compound: COc1cc(/C=C2\C(=O)Nc3cc(C)c(O)cc32)cc(OC)c1OC
classification: False
//
compound: C[C@@H]1N=C(c2ccc(Br)cc2)Nc2nc3ccccn3c2C1=O
classification: False
//
compound: Cc1ccc2oc(=O)cc(/C(=C3/C=CC=N3)c3ccc[nH]3)c2c1
classification: True
//
compound: COc1ccc2nc(/C=C/c3ccc(N(C)C)cc3)sc2c1
classification: False
//
compound: O=C(/C=C/c1ccc(Cl)cc1)c1ccc(Br)cc1
classification: False
//
compound: O=C(CCc1ccccc1)N1CCN(C(=O)CCc2ccccc2)CC1
classification: False
//
compound: Cc1ncc([N+](=O)[O-])n1CCOc1ccc(C(=O)/C=C/c2ccc(C(F)(F)F)cc2)cc1
classification: False
//
compound: [O-]c1c[n+](-c2ccc(Cl)cc2)no1
classification: False
//
compound: CCN1CCN(c2nc(NNC(=O)c3cccc(OC)c3)nc(N3CCN(C(c4ccccc4)c4ccccc4)CC3)n2)CC1
classification: False
//
compound: CCCc1ccnc(NS(=O)(=O)c2ccc(N)cc2)n1
classification: False
//
compound: CCOC(=O)c1c(Cl)c2c(n1Cc1cccc(OC)c1)-c1oncc1CC2
classification: False
//
compound: CCc1cc2n(n1)-c1ncc(C(=O)OC)cc1Oc1ccccc1-2
classification: False
//
compound: O=S(=O)(NC1c2ccccc2Oc2ccccc21)c1ccccc1
classification: False
//
compound: CCc1ccc(-c2nnc(COc3ccc(-c4nc5ccccc5[nH]4)cc3OC)o2)cc1
classification: False
//
compound: Cc1ccc([P+](Cc2ccc([N+](=O)[O-])cc2)(c2ccc(C)cc2)c2ccc(C)cc2)cc1
classification: True
//
compound: COC(=O)C1(C(=O)OC)C2C(=O)C3C(C21)C3(C(=O)OC(C)(C)C)C(=O)OC(C)(C)C (configuration not stated)
classification: False
//
compound: N/C(=N\O)c1cn(C2OC(CO)C(O)C2O)c2ncnc(N)c12 (configuration not stated)
classification: True
//
compound: CCc1ccc(-c2nnc(COc3ccc(-c4nc5ccc(C)cc5[nH]4)cc3OC)o2)cc1
classification: False
//
compound: N#Cc1ncc(-c2cc(F)ccc2F)c(NC2CCCCCC2)n1
classification: False
//
compound: O=NN(CCCl)C(=O)Nc1ccc(NC(=O)N(CCCl)N=O)cc1
classification: False
//
compound: OC(CNC1CCCC1)Cn1c2ccccc2c2ccccc21 (configuration not stated)
classification: False
